- testedSystem: Protein kinase C eta type (Homo sapiens);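 note: value is the mean inhibition, from GSK PKIS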
- conditionContext: at 1 µM
Quick list: inhibition per entry.
Give a bare numeral; the unit % is implied.

CCN(CC)Cc1ccc(Nc2nccc(-c3cnn4ncccc34)n2)cc1: 7.25
CNC(=O)c1cncc(/C=C/c2c(C)cccc2C)c1: 1.62
CCc1nccc2c1nc(-c1nonc1N)n2CC: 21.1
Fc1ccc(-c2ncn(C3CCNCC3)c2-c2ccnc(Oc3ccc(F)c(F)c3)n2)cc1: 5.62
CCc1cccc(CC)c1/C=C/c1cncc(C(=O)NC)c1: -0.26
C[C@@H](Oc1cc(-n2cnc3ccc(OC4CCN(C)CC4)cc32)sc1C(N)=O)c1ccccc1Cl: 4.62

# input for lookup
Look up inhibition for this compound: "O=C1Nc2ccc(I)cc2C1=Cc1cc(Br)c(O)c(Br)c1"
2.17
